The compounds listed here are annotated with their %Inh.
- Test system: YANK1
- Construct: gene STK32A
- measurementSetup: concentration: 1 μM,replicates: in singlicate; n = 1;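 also: KINOMEscan kinase panel screen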
quantityMeasured: %Inh (%)

>  <compound>
Cl.Oc1cc(-c2nc(-c3ccccc3)[nH]c2-c2ccncc2)ccc1Cl [SB-386023]

>  <quantityMeasured>
%Inh

>  <endpointResult>
0

$$$$
>  <compound>
CC(C)Nc1cc(-c2ccc3c(N)n[nH]c3c2)nc(N)n1 [GSK2221681]

>  <quantityMeasured>
%Inh

>  <endpointResult>
37

$$$$
>  <compound>
COc1ccc(C[C@@H](CN)NC(=O)c2cc(Br)c(-c3ccnc4[nH]ccc34)s2)cc1.Cl.Cl [GSK1389063]

>  <quantityMeasured>
%Inh

>  <endpointResult>
71

$$$$

----------
- System: BLK
- measurementSetup: concentration: 1 μM,replicates: in singlicate; n = 1
Some compounds, each annotated with its measured %Inh.

>  <compound>
Cl.Cl.NC[C@H](CC1CCCCC1)NC(=O)c1cc(Br)c(-c2ccnc3[nH]ccc23)s1

>  <testedOn>
BLK

>  <readingUnit>
%

>  <%Inh>
0

$$$$
>  <compound>
Cc1n[nH]c2ccc(-c3cc(OC[C@@H](N)Cc4ccccc4)cnc3-c3ccoc3)cc12.O=C(O)C(F)(F)F.O=C(O)C(F)(F)F

>  <testedOn>
BLK

>  <readingUnit>
%

>  <%Inh>
6

$$$$
>  <compound>
Cl.Cl.NC[C@H](Cc1ccc(C(F)(F)F)cc1)NC(=O)c1cc(Br)c(-c2ccnc3[nH]ccc23)s1

>  <testedOn>
BLK

>  <readingUnit>
%

>  <%Inh>
0

$$$$
>  <compound>
Cc1occc1-c1nc(N)c(OC[C@@H](N)Cc2c[nH]c3ccccc23)cc1-c1cc2c(C)n[nH]c2cn1

>  <testedOn>
BLK

>  <readingUnit>
%

>  <%Inh>
23

$$$$
>  <compound>
Cl.Cl.Nc1nc(-c2ccc3c(N)n[nH]c3c2)cc(N2CCCC(NC(=O)c3ccccc3)C2)n1 (stereo not shown)

>  <testedOn>
BLK

>  <readingUnit>
%

>  <%Inh>
0

$$$$
>  <compound>
C[C@@H](Oc1cc(-c2cnn(C3CCNCC3)c2)cnc1N)c1c(Cl)ccc(F)c1Cl

>  <testedOn>
BLK

>  <readingUnit>
%

>  <%Inh>
58

$$$$
>  <compound>
Nc1nc(Nc2ccccc2)cc(-c2ccc3c(N)n[nH]c3c2)n1

>  <testedOn>
BLK

>  <readingUnit>
%

>  <%Inh>
0

$$$$
>  <compound>
CN(C)CC(O)COc1ccc(Nc2nccc(-c3cnn4nc(N5CCOCC5)ccc34)n2)cc1 (stereo not shown)

>  <testedOn>
BLK

>  <readingUnit>
%

>  <%Inh>
0

$$$$
>  <compound>
C=CC(=O)Nc1cc2c(Nc3ccc(F)c(Cl)c3)ncnc2cc1OCCCN1CCOCC1

>  <testedOn>
BLK

>  <readingUnit>
%

>  <%Inh>
99.6

$$$$
>  <compound>
NC(=O)c1cc(-c2ccccc2)cc2c(C3CCNCC3)c[nH]c12

>  <testedOn>
BLK

>  <readingUnit>
%

>  <%Inh>
16

$$$$

----------
Below: a set of entries, each annotated with reported %Inh.
- Test system: PIM2
- measurementSetup: concentration: 1 μM,replicates: in singlicate; n = 1

>  <compound>
C=CC(=O)Nc1cc2c(Nc3ccc(F)c(Cl)c3)ncnc2cc1OCCCN1CCOCC1

>  <%Inh / %>
0

$$$$
>  <compound>
O=C(NCCCN1CCOC1=O)c1cnc(NCc2cc(Cl)ccc2Cl)nc1NC1CCCC1

>  <%Inh / %>
16

$$$$
>  <compound>
CN(C)CC(O)COc1ccc(Nc2nccc(-c3cnn4nc(N5CCOCC5)ccc34)n2)cc1 (stereo not drawn)

>  <%Inh / %>
0

$$$$
>  <compound>
Cc1cc(C(=O)Nc2ccc(Oc3ccc4nc(NC(=O)C5CC5)cn4n3)cc2)nn1-c1ccccc1

>  <%Inh / %>
2

$$$$
>  <compound>
Cl.Cl.NC[C@H](Cc1ccc(C(F)(F)F)cc1)NC(=O)c1cc(Br)c(-c2ccnc3[nH]ccc23)s1

>  <%Inh / %>
0

$$$$
>  <compound>
CNC(=O)c1ccccc1Sc1ccc2c(/C=C/c3ccccn3)n[nH]c2c1

>  <%Inh / %>
0

$$$$

----------
- Test system: IRAK3
- measurementSetup: concentration: 1 μM,replicates: in singlicate; n = 1

>  <compoundSmiles>
Cc1ccc2c(-c3ccncc3)c(-c3ccc(F)cc3)nn2c1.Cl

>  <testedOn>
IRAK3

>  <readingUnit>
%

>  <%Inh>
0

$$$$
>  <compoundSmiles>
Cl.Cl.NC[C@H](CC1CCCCC1)NC(=O)c1cc(Br)c(-c2ccnc3[nH]ccc23)s1

>  <testedOn>
IRAK3

>  <readingUnit>
%

>  <%Inh>
0

$$$$
>  <compoundSmiles>
C=CC(=O)Nc1cc2c(Nc3ccc(F)c(Cl)c3)ncnc2cc1OCCCN1CCOCC1

>  <testedOn>
IRAK3

>  <readingUnit>
%

>  <%Inh>
2

$$$$
>  <compoundSmiles>
CNC(=O)c1ccccc1Sc1ccc2c(/C=C/c3ccccn3)n[nH]c2c1

>  <testedOn>
IRAK3

>  <readingUnit>
%

>  <%Inh>
16

$$$$
>  <compoundSmiles>
Cc1occc1-c1nc(N)c(OC[C@@H](N)Cc2c[nH]c3ccccc23)cc1-c1cc2c(C)n[nH]c2cn1

>  <testedOn>
IRAK3

>  <readingUnit>
%

>  <%Inh>
12

$$$$
>  <compoundSmiles>
Cc1n[nH]c2ccc(-c3cc(OC[C@@H](N)Cc4ccccc4)cnc3-c3ccoc3)cc12.O=C(O)C(F)(F)F.O=C(O)C(F)(F)F

>  <testedOn>
IRAK3

>  <readingUnit>
%

>  <%Inh>
0

$$$$
>  <compoundSmiles>
CN(C)CCOc1ccc(-c2cc(-c3c[nH]nc3-c3ccccn3)ccn2)cc1

>  <testedOn>
IRAK3

>  <readingUnit>
%

>  <%Inh>
18

$$$$
>  <compoundSmiles>
Cl.Oc1cc(-c2nc(-c3ccccc3)[nH]c2-c2ccncc2)ccc1Cl

>  <testedOn>
IRAK3

>  <readingUnit>
%

>  <%Inh>
0

$$$$

----------
- System: RSK3(Kin.Dom.1-N-terminal)
- Construct: gene RPS6KA2
- measurementSetup: concentration: 1 μM,replicates: in singlicate; n = 1

>  <compoundSmiles>
Cl.Cl.NC[C@H](Cc1ccc(C(F)(F)F)cc1)NC(=O)c1cc(Br)c(-c2ccnc3[nH]ccc23)s1

>  <readingUnit>
%

>  <%Inh>
37

$$$$
>  <compoundSmiles>
Cc1ccc2c(-c3ccncc3)c(-c3ccc(F)cc3)nn2c1.Cl

>  <readingUnit>
%

>  <%Inh>
1

$$$$
>  <compoundSmiles>
CC(C)N1C(=O)Cc2cc(Nc3ncc(C(F)(F)F)c(NCc4cccc(S(C)(=O)=O)c4)n3)ccc21

>  <readingUnit>
%

>  <%Inh>
39

$$$$
>  <compoundSmiles>
C[C@@H]1CCN(C(=O)CC#N)C[C@@H]1N(C)c1ncnc2[nH]ccc12

>  <readingUnit>
%

>  <%Inh>
0

$$$$

----------
# key: entry, value: %Inh
- Test system: PLK3
- measurementSetup: concentration: 1 μM,replicates: in singlicate; n = 1

>  <molecule>
CN(C)CC(O)COc1ccc(Nc2nccc(-c3cnn4nc(N5CCOCC5)ccc34)n2)cc1 (stereo not shown) [GW767488]

>  <%Inh [%]>
35

$$$$
>  <molecule>
Cl.Cl.NC[C@H](CC1CCCCC1)NC(=O)c1cc(Br)c(-c2ccnc3[nH]ccc23)s1 [GSK1581427]

>  <%Inh [%]>
0

$$$$
>  <molecule>
CC(C)N1C(=O)Cc2cc(Nc3ncc(C(F)(F)F)c(NCc4cccc(S(C)(=O)=O)c4)n3)ccc21

>  <%Inh [%]>
64

$$$$
>  <molecule>
C[C@H]1Oc2cc(cnc2N)-c2c(nn(C)c2C#N)CN(C)C(=O)c2ccc(F)cc21

>  <%Inh [%]>
0

$$$$

----------
- System: DAPK3
- measurementSetup: concentration: 1 μM,replicates: in singlicate; n = 1
quantityMeasured: %Inh

>  <compoundSmiles>
CC(C)N1C(=O)Cc2cc(Nc3ncc(C(F)(F)F)c(NCc4cccc(S(C)(=O)=O)c4)n3)ccc21

>  <testedOn>
DAPK3

>  <quantityMeasured>
%Inh

>  <endpointResult>
20%

$$$$
>  <compoundSmiles>
COc1ccc(C[C@@H](CN)NC(=O)c2cc(Br)c(-c3ccnc4[nH]ccc34)s2)cc1.Cl.Cl

>  <testedOn>
DAPK3

>  <quantityMeasured>
%Inh

>  <endpointResult>
18%

$$$$
>  <compoundSmiles>
NC(=O)c1cc(-c2ccccc2)cc2c(C3CCNCC3)c[nH]c12

>  <testedOn>
DAPK3

>  <quantityMeasured>
%Inh

>  <endpointResult>
40%

$$$$
>  <compoundSmiles>
Nc1nc(Nc2ccccc2)cc(-c2ccc3c(N)n[nH]c3c2)n1

>  <testedOn>
DAPK3

>  <quantityMeasured>
%Inh

>  <endpointResult>
62%

$$$$
>  <compoundSmiles>
C[C@@H](Oc1cc(-c2cnn(C3CCNCC3)c2)cnc1N)c1c(Cl)ccc(F)c1Cl

>  <testedOn>
DAPK3

>  <quantityMeasured>
%Inh

>  <endpointResult>
15%

$$$$
>  <compoundSmiles>
CN(C)CCOc1ccc(-c2cc(-c3c[nH]nc3-c3ccccn3)ccn2)cc1

>  <testedOn>
DAPK3

>  <quantityMeasured>
%Inh

>  <endpointResult>
0%

$$$$
>  <compoundSmiles>
Cc1ccc2c(-c3ccncc3)c(-c3ccc(F)cc3)nn2c1.Cl

>  <testedOn>
DAPK3

>  <quantityMeasured>
%Inh

>  <endpointResult>
5%

$$$$
>  <compoundSmiles>
CCn1c(-c2nonc2N)nc2c(C#CC(C)(C)O)nc(OCCN)cc21.Cl.Cl

>  <testedOn>
DAPK3

>  <quantityMeasured>
%Inh

>  <endpointResult>
21%

$$$$
